- Tested on: SNB-75 CNS
- assayInfo: NCI tumour cell line growth inhibition, 48 h
parameterMeasured: GI50

>>> observed("O=c1c2ccccc2sc2c(NCCCNCCO)nc3ccccc3c12")
"1640 nM"
>>> observed("CNC(=O)c1c(C)oc2cc(Oc3ncnc4cc(OC)c(OC)cc34)ccc12")
"2350 nM"
>>> observed("CCc1ccc(Oc2c(-c3ccc(OCc4ccc(Cl)cc4)cc3O)n[nH]c2C(F)(F)F)cc1")
"1480 nM"
>>> observed("Nc1nc(/C=C\\c2ccc([N+](=O)[O-])s2)nc(N2CCN(c3ccccc3)CC2)n1")
"33100 nM"
>>> observed("COc1ccc2c(c1)C(=O)c1c-2n(CCCN(C)C)c(=O)c2ccccc12")
"648 nM"
>>> observed("Cc1ccc(O)c(NC(=O)c2cccc(Nc3ccnc(C(F)(F)F)c3)c2)c1")
"11400 nM"
>>> observed("O=c1c2c(nc3n1CCS3)[nH]c1cc([N+](=O)[O-])ccc12")
"57100 nM"
>>> observed("OC(CNc1ccnc2cc(Cl)ccc12)CNc1ccnc2cc(Cl)ccc12")
"1500 nM"
>>> observed("Clc1c(Cl)[n+](Cc2ccc3ccccc3c2)cn1Cc1ccc2ccccc2c1")
"836 nM"
>>> observed("COc1ccc(/C=C\\c2cc(OC)c(OC)c(OC)c2)cc1OCC(=O)Nc1nc2ccc(F)cc2s1")
"4390 nM"
>>> observed("CNC(=O)c1ccc(N2C(=S)N(c3cnc(C#N)c(C(F)(F)F)c3)C(=O)C23CCC3)cc1F")
"> 100000 nM"
>>> observed("C=C(c1ccc(OC)c(/C=C/C(=O)c2ccc3c(c2)OCO3)c1)c1cc(OC)c(OC)c(OC)c1")
"1640 nM"
